# zone of inhibition at 200 µg/disc values compiled below
Tested on: E. coli/cph001
Assay: Disk diffusion assay
Assay type: cell-based, E. coli BL21 Rosetta (DE3)
Details: Escherichia coli, 24 h, read-out: inhibition zones
Starred links: 1 amine or outer side, 2 acyl side, 3 side chain; linkers in the order of their positions; H or OH if unused. Positions of bridges follow the written chain, without caps; N, C: chain ends. Non-standard residues stand in square brackets, D forms with d. Residues, ends and D or L forms follow the SMILES beside them. *: point of attachment. X1 = NC1=N[C@@H]([C@H](N[*:1])C(=O)[*:2])C[C@H](O)N1; ΔAla(Z-3-ureido) = NC(=O)N/C=C(\N)C(=O)O; β3hOrn = NCCC[C@H](N)CC(=O)*; Dap = NC[C@H](N)C(=O)O
parameterMeasured: zone of inhibition at 200 µg/disc

>>> measured("CC[C@H]1OC(=O)[C@H](C)[C@@H](O[C@H]2C[C@@](C)(OC)[C@@H](O)[C@H](C)O2)[C@H](C)[C@@H](O[C@@H]2O[C@H](C)C[C@H](N(C)C)[C@H]2O)[C@](C)(O)C[C@@H](C)C(=O)[C@H](C)[C@@H](O)[C@]1(C)O")
"32 mm"
>>> measured("N=C1NCCC([C@@H]2NC(=O)/C(=C/NC(N)=O)NC(=O)[C@H](CNC(=O)C[C@@H](N)CCCN)NC(=O)[C@H](CO)NC(=O)[C@@H](N)CNC2=O)N1 (stereo in doubt)")
"18 mm"
>>> measured("NCCC[C@H](N)CC(=O)N[C@H]1CNC(=O)[C@H]([C@H]2C[C@H](O)NC(N)=N2)NC(=O)/C(=C/NC(N)=O)NC(=O)[C@H](CO)NC(=O)[C@H](CO)NC1=O [VIO, viomycin] (β3hOrn-[Dap]SS[ΔAla(Z-3-ureido)][X1]; lactam 1-C)")
"17.5 mm"
>>> measured("C[C@@H]1NC(=O)[C@@H](N)CNC(=O)[C@H](C2CCNC(=N)N2)NC(=O)/C(=C/NC(N)=O)NC(=O)[C@H](CNC(=O)C[C@@H](N)CCCN)NC1=O (stereo partly shown)")
"17.5 mm"

====

Target: Cph001 (Streptosporangium roseum)
Sequence (D2B3F1 1-286): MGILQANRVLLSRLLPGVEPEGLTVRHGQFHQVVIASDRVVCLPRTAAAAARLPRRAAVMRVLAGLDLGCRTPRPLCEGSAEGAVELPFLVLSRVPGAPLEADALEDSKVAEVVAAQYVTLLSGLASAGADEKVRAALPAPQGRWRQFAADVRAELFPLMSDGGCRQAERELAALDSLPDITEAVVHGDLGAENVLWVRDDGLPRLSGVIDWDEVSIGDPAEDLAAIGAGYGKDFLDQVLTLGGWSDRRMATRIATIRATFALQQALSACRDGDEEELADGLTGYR
pKd: −log10 of the molar value. Starred links: 1 amine or outer side, 2 acyl side, 3 side chain; linkers in the order of their positions; H or OH if unused. Positions of bridges follow the written chain, without caps; N, C: chain ends. Non-standard residues stand in square brackets, D forms with d. Residues, ends and D or L forms follow the SMILES beside them. *: point of attachment. X1 = NC1=N[C@@H]([C@H](N[*:1])C(=O)[*:2])C[C@H](O)N1; ΔAla(Z-3-ureido) = NC(=O)N/C=C(\N)C(=O)O; β3hOrn = NCCC[C@H](N)CC(=O)*; Dap = NC[C@H](N)C(=O)O
parameterMeasured: pKd

>>> measured("NCCC[C@H](N)CC(=O)N[C@H]1CNC(=O)[C@H]([C@H]2C[C@H](O)NC(N)=N2)NC(=O)/C(=C/NC(N)=O)NC(=O)[C@H](CO)NC(=O)[C@H](CO)NC1=O [VIO, viomycin] (β3hOrn-[Dap]SS[ΔAla(Z-3-ureido)][X1]; lactam 1-C)")
5.38
>>> measured("C[C@@H]1NC(=O)[C@@H](N)CNC(=O)[C@H](C2CCNC(=N)N2)NC(=O)/C(=C/NC(N)=O)NC(=O)[C@H](CNC(=O)C[C@@H](N)CCCN)NC1=O (stereo partly drawn)")
4.26
>>> measured("N=C1NCCC([C@@H]2NC(=O)/C(=C/NC(N)=O)NC(=O)[C@H](CNC(=O)C[C@@H](N)CCCN)NC(=O)[C@H](CO)NC(=O)[C@@H](N)CNC2=O)N1 (stereo in doubt)")
5.91

Sourced from paper PMC10730852
